Tested on: AMPA receptor
Test: Glutamate (100 μM)-evoked calcium influx in DIV9 dissociated rat forebrain neurons
Format: cell-based
Conditions: Glutamate (100 μM)-evoked Ca2+ influx
pEC50: −log10 of the molar value.
readoutLabel: pEC50

CC(C)S(=O)(=O)NC[C@H](C)c1ccc(-n2ccc3ncccc32)cc1 ... 8.06

a. CC(C)S(=O)(=O)NC[C@H](C)c1ccc(-c2ccnc(C(=O)N3CCCC3)c2)cc1
b. CC(C)S(=O)(=O)NC[C@H](C)c1ccc(-c2ccc(CCN3CCCC3=O)cc2)cc1
c. CC(C)S(=O)(=O)NC[C@H](C)c1ccc(-n2ccc3cc(C(=O)N4CCCC4)ccc32)cc1
With regard to pEC50, arrange the entries in ascending order, please. Write the labels, ordered according to the request.
a, b, c
